# target_or_test_system: Gal(b1-4)GlcNAc(b1-2)[Gal(b1-4)GlcNAc(b1-4)]Man(a1-3)[GlcNAc(b1-4)][Gal(b1-4)GlcNAc(b1-2)Man(a1-6)]Man(b1-4)GlcNAc(b1-4)GlcNAc
# protocol_description: glycan array binding signal (z-score within array); higher = stronger binding
# conditions: glycan notation: IUPAC condensed, linker removed
The sample as a whole holds a higher share of the strongest signals than the screen did.

binder	glycan array binding signal (z-score)
Lb MiSSP8 (Laccaria bicolor) (protein) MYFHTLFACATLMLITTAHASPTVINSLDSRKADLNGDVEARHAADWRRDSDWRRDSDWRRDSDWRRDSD	-0.274
EULS2 M1 (Oryza sativa) (protein) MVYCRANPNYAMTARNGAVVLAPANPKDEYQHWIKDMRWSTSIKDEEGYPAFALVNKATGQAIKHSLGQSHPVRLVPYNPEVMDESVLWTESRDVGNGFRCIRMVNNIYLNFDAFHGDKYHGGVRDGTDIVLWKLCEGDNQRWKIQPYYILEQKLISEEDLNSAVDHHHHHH	0.188
EUL D1A first (Oryza sativa) (protein) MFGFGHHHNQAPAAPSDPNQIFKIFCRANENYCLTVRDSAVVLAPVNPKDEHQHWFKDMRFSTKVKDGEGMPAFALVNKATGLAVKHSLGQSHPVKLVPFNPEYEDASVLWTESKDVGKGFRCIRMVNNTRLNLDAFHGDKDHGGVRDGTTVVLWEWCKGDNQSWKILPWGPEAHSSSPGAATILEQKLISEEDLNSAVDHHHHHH	-1.53

Attribution: the supplement of paper PMC8728848
